Provide the reported EC50 at 96 h of each item.
test: Cytotoxicity against mouse NIH/3T3 cells measured after 96 hrs by SRB assay; format: toxicity, NIH3T3
Report as a plain number; the unit µM is understood.

Query :: Would you mind telling me what EC50 at 96 h value was observed for CC(=O)O[C@H]1C[C@]2(C)[C@H]3CC=C4[C@@H]5[C@@H](C)[C@H](C)CC[C@]5(C(=O)Nc5cccnc5)CC[C@@]4(C)[C@]3(C)CC[C@H]2C(C)(C)[C@H]1OC(C)=O ?
Result :: 4.2

Query :: Would you mind telling me what EC50 at 96 h value was observed for CC(=O)O[C@H]1C[C@]2(C)[C@H]3CC=C4[C@@H]5[C@@H](C)[C@H](C)CC[C@]5(C(=O)Nc5ccc6ncccc6c5)CC[C@@]4(C)[C@]3(C)CC[C@H]2C(C)(C)[C@H]1OC(C)=O ?
Result :: 0.9

Query :: Would you mind telling me what EC50 at 96 h value was observed for CC(=O)O[C@H]1C[C@]2(C)[C@H]3CC=C4[C@@H]5[C@@H](C)[C@H](C)CC[C@]5(C(=O)Nc5ccnc6ccccc56)CC[C@@]4(C)[C@]3(C)CC[C@H]2C(C)(C)[C@H]1OC(C)=O ?
Result :: 5.2

Query :: Would you mind telling me what EC50 at 96 h value was observed for CC(=O)O[C@H]1C[C@]2(C)[C@H]3CC=C4[C@@H]5[C@@H](C)[C@H](C)CC[C@]5(C(=O)Nc5ccc6cccnc6c5)CC[C@@]4(C)[C@]3(C)CC[C@H]2C(C)(C)[C@H]1OC(C)=O ?
Result :: 1.8

====

assay: Cytotoxicity against human A2780 cells measured after 96 hrs by SRB assay; format: functional, cell-based; conditions: A2780, 96 h
Reported Metric: EC50

Query :: Would you mind telling me what EC50 value was observed for CC(=O)O[C@H]1C[C@]2(C)[C@H]3CC=C4[C@@H]5[C@@H](C)[C@H](C)CC[C@]5(C(=O)Nc5cnc6ccccc6c5)CC[C@@]4(C)[C@]3(C)CC[C@H]2C(C)(C)[C@H]1OC(C)=O ?
Result :: 2.8 µM

Query :: Would you mind telling me what EC50 value was observed for CC(=O)O[C@H]1C[C@]2(C)[C@H]3CC=C4[C@@H]5CC(C)(C)CC[C@]5(C(=O)Nc5cccnc5)CC[C@@]4(C)[C@]3(C)CC[C@H]2C(C)(C)[C@H]1OC(C)=O ?
Result :: 0.9 µM

Query :: Would you mind telling me what EC50 value was observed for CC(=O)O[C@H]1C[C@]2(C)[C@H]3CC=C4[C@@H]5[C@@H](C)[C@H](C)CC[C@]5(C(=O)Nc5ccncc5)CC[C@@]4(C)[C@]3(C)CC[C@H]2C(C)(C)[C@H]1OC(C)=O ?
Result :: 8.3 µM

====

assay: Cytotoxicity against human MCF7 cells measured after 96 hrs by SRB assay; type: functional, cell-based; conditions: MCF7, 96 h
Provide the reported EC50 of each item.
Kindly write the number and append the unit.

Query :: Would you mind telling me what EC50 value was observed for CC(=O)OC[C@@]1(C)[C@@H]2CC[C@]3(C)[C@H](CC=C4[C@@H]5[C@@H](C)[C@H](C)CC[C@]5(C(=O)Nc5cccc6ncccc56)CC[C@]43C)[C@@]2(C)C[C@@H](OC(C)=O)[C@@H]1OC(C)=O ?
Result :: 1.4 µM

Query :: Would you mind telling me what EC50 value was observed for CC(=O)OC[C@@]1(C)[C@@H]2CC[C@]3(C)[C@H](CC=C4[C@@H]5[C@@H](C)[C@H](C)CC[C@]5(C(=O)Nc5cncc6ccccc56)CC[C@]43C)[C@@]2(C)C[C@@H](OC(C)=O)[C@@H]1OC(C)=O ?
Result :: 0.54 µM

Query :: Would you mind telling me what EC50 value was observed for CC(=O)O[C@H]1C[C@]2(C)[C@H]3CC=C4[C@@H]5[C@@H](C)[C@H](C)CC[C@]5(C(=O)Nc5ccnc6ccccc56)CC[C@@]4(C)[C@]3(C)CC[C@H]2C(C)(C)[C@H]1OC(C)=O ?
Result :: 4 µM

Query :: Would you mind telling me what EC50 value was observed for CC(=O)O[C@H]1C[C@]2(C)[C@H]3CC=C4[C@@H]5CC(C)(C)CC[C@]5(C(=O)Nc5ccc6cccnc6c5)CC[C@@]4(C)[C@]3(C)CC[C@H]2C(C)(C)[C@H]1OC(C)=O ?
Result :: 1.4 µM

Query :: Would you mind telling me what EC50 value was observed for CC(=O)O[C@H]1C[C@]2(C)[C@H]3CC=C4[C@@H]5CC(C)(C)CC[C@]5(C(=O)Nc5cccc6ncccc56)CC[C@@]4(C)[C@]3(C)CC[C@H]2C(C)(C)[C@H]1OC(C)=O ?
Result :: 2.5 µM

Ref: ChEMBL document CHEMBL3865812
